# assayed_system: NL20 human bronchial epithelial cells expressing human Z-AAT (Homo sapiens, UniProt P01009, E366K)
# assay_info: AAT Function Assay (MSD Assay NL20-SI Cell Line)
# run_parameters: functionally active AAT in supernatant of NL20 cells expressing human Z-AAT, MSD readout; read-out: NL20 Func. (EC50)
measurement_kind: EC50

Field: example entries. Status: answers known.
# compound, measurement_kind, reported_result
rows = [
    ("COCC(C)(C)c1c(-c2ccc(C(=O)NC3CCC(=O)NC3)cc2)c2cc3[nH]ncc3cc2n1-c1ccc(F)cc1 (stereo not shown)", "EC50", "> 1000 nM"),
    ("CCC1(c2c(-c3ccc(P(C)(C)=O)cc3)c3cc4[nH]ncc4cc3n2-c2ccc(F)cc2)COC1", "EC50", "> 1000 nM"),
    ("O=C(O)c1ccc(-c2c(CC3CCOC3)n(-c3ccc(F)cc3)c3cc4cn[nH]c4cc23)cc1 (stereo not shown)", "EC50", "> 1000 nM"),
    ("Fc1ccc(-n2c(C3CCOCC3)c(-c3ccncc3)c3cc4[nH]ncc4cc32)cc1", "EC50", "> 1000 nM"),
    ("COCC(C)(C)c1c(-c2cnn(C(C)(C)CO)c2)c2cc3[nH]ncc3cc2n1-c1ccc(F)cc1", "EC50", "> 1000 nM"),
]

Data request, read-out EC50, for CCC1(c2c(-c3ccc(C(=O)O)c(F)c3)c3cc4[nH]ncc4cc3n2-c2ccc(F)cc2)COC1 > 1000 nM

Which EC50 is listed for Oc1ccc(-c2c(C3CCOCC3)n(-c3ccc(F)cc3)c3cc4cn[nH]c4cc23)cc1C(F)(F)F ? > 1000 nM

---

# assayed_system: Z-AAT (Homo sapiens, UniProt P01009, E366K)
# Construct: Purified Z-AAT protein from human plasma; Vertex Cambridge Sample 4942)
# Sequence (P01009 25-418 E366K): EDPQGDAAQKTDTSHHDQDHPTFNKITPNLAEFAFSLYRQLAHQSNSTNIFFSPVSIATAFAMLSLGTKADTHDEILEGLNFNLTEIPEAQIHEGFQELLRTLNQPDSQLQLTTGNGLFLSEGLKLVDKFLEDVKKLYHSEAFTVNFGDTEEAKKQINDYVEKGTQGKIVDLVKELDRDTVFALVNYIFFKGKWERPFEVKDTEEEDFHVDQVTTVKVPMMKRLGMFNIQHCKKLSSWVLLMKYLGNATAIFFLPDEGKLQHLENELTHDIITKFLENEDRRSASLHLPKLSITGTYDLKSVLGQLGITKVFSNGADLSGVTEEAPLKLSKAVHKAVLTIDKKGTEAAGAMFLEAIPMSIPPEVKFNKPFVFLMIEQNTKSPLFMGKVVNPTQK
# assay_info: Biochemical Assay (Z-AAT Elastase Activity Assay)
# run_parameters: purified Z-AAT protein from human plasma and purified human neutrophil elastase
pIC50: −log10 of the molar value.
measurement_kind: pIC50

Worked set:
# compound, reported_result
data = [
    ("COc1nc(C(N)=O)ccc1-c1c(C(C)(C)CC#N)n(-c2ccc(F)cc2)c2cc3cn[nH]c3cc12", "< 6.00"),
    ("Oc1c(F)cc(-c2c(C3CCOCC3)n(-c3ccc(F)cc3)c3cc4cn[nH]c4cc23)cc1F", "< 4.52"),
    ("Fc1ccc(-n2c(C3CCOCC3)c(-c3ccc(OCC(F)(F)F)nc3)c3cc4[nH]ncc4cc32)cc1", "< 4.52"),
    ("COCC(C)(C)c1c(-c2ccc(C(=O)NCCNC(C)=O)cc2)c2cc3[nH]ncc3cc2n1-c1ccc(F)cc1", "< 4.52"),
]

Fill in: pIC50 of COCC(C)(C)c1c(-c2cnn(CC(=O)O)c2)c2cc3[nH]ncc3cc2n1-c1ccc(F)cc1 is ___ < 4.52

Can you look up the measured pIC50 of Cc1cc(-c2c(C(C)(C)CO)n(-c3ccc(F)cc3)c3cc4cn[nH]c4cc23)cnc1P(C)(C)=O for me? < 6.00

Look up pIC50: COCC(C)(C)c1c(-c2ccc(C(=O)NCC(O)CO)cc2)c2cc3[nH]ncc3cc2n1-c1ccc(F)cc1 (stereo not drawn) < 6.00

Query (compound): CC(=O)N1CC(n2cc(-c3c(C4CCOCC4)n(-c4ccc(F)cc4)c4cc5cn[nH]c5cc34)cn2)C1 ; field requested: pIC50 < 4.52

Record request: pIC50 value, item CC(C)(CC#N)c1c(-c2cnn(CC(=O)O)c2)c2cc3[nH]ncc3cc2n1-c1ccc(F)cc1 < 6.00

Fill in the blank: the reported pIC50 of Cc1nc(P(C)(C)=O)ccc1-c1c(C(C)(C)CC#N)n(-c2ccc(F)cc2)c2cc3cn[nH]c3cc12 is ____. < 6.00

---

# assayed_system: Z-AAT (Homo sapiens, UniProt P01009, E366K)
# Construct: Purified Z-AAT protein from human plasma; Vertex Cambridge Sample 4942)
# assay_info: Biochemical Assay (Z-AAT Elastase Activity Assay)
# run_parameters: purified Z-AAT protein from human plasma and purified human neutrophil elastase
Measured IC50 by item

# molecule, reported_result
rows = [
    ("Cn1cc(-c2c(C3CCOCC3)n(-c3ccc(F)cc3)c3cc4cn[nH]c4cc23)ccc1=O [Compound 281]", "> 30 µM"),
    ("COCC(C)(C)c1c(-c2ccc(C(=O)N[C@H]3C[C@@H](CO)NC3=O)cc2)c2cc3[nH]ncc3cc2n1-c1ccc(F)cc1 [Compound 244]", "> 1 µM"),
    ("CC(=O)Nc1ccc(-c2c(C3CCOCC3)n(-c3ccc(F)cc3)c3cc4cn[nH]c4cc23)cn1 [Compound 282]", "> 30 µM"),
]

Field request: IC50 | item: COCC(C)(C)c1c(-c2ccc(C(=O)N3CCC(O)(CO)C3)cc2)c2cc3[nH]ncc3cc2n1-c1ccc(F)cc1 (stereo not shown) [Compound 240] > 30 µM

---

# assayed_system: Z-AAT (Homo sapiens, UniProt P01009, E366K)
# Construct: Purified Z-AAT protein from human plasma; Vertex Cambridge Sample 4942)
# assay_info: Biochemical Assay (Z-AAT Elastase Activity Assay)
# run_parameters: purified Z-AAT protein from human plasma and purified human neutrophil elastase
pIC50: −log10 of the molar value.
measurement_kind: pIC50

Observe how each entry below is paired with its result.
# compound, reported_result
measured = [
    ("CC(C)(C(=O)O)n1cc(-c2c(C3CCOCC3)n(-c3ccc(F)cc3)c3cc4cn[nH]c4cc23)cn1", "< 4.52"),
    ("COCC(C)(C)c1c(-c2ccc(C(=O)Nc3nnc(S(C)(=O)=O)s3)cc2)c2cc3[nH]ncc3cc2n1-c1ccc(F)cc1", "< 4.52"),
    ("O=C(O)c1ccc(-c2c(C3CCOCC3)n(-c3ccc(F)cc3)c3cc4cn[nH]c4c(F)c23)cc1", "< 6.00"),
]

I am curious: what pIC50 value has been reported for COCC(C)(C)c1c(-c2ccc(C(=O)N3CCCC(O)(CO)C3)cc2)c2cc3[nH]ncc3cc2n1-c1ccc(F)cc1 (stereo not shown) ? < 4.52

---

# assayed_system: NL20 human bronchial epithelial cells expressing human Z-AAT (Homo sapiens, UniProt P01009, E366K)
# assay_info: AAT Function Assay (MSD Assay NL20-SI Cell Line)
# run_parameters: functionally active AAT in supernatant of NL20 cells expressing human Z-AAT, MSD readout; read-out: NL20 Func. (EC50)
measurement_kind: EC50

Example compounds with recorded EC50:
# smiles_string, EC50
data = [
    ("COCC(C)(C)c1c(-c2cnn(CC(=O)O)c2)c2cc3[nH]ncc3cc2n1-c1ccc(F)cc1", "> 1000 nM"),
    ("CS(=O)(=O)CCn1cc(-c2c(C3CCOCC3)n(-c3ccc(F)cc3)c3cc4cn[nH]c4cc23)cn1", "> 1000 nM"),
    ("CC(C)(O)c1ccc(-c2c(C3CCOCC3)n(-c3ccc(F)cc3)c3cc4cn[nH]c4cc23)cc1", "400 to 1000 nM"),
]

Give its EC50 value. Item: O=C(NCCN1CCOC1=O)c1ccc(-c2c(C3CCOCC3)n(-c3ccc(F)cc3)c3cc4cn[nH]c4cc23)cc1 > 1000 nM

---

# assayed_system: Z-AAT (Homo sapiens, UniProt P01009, E366K)
# Construct: Purified Z-AAT protein from human plasma; Vertex Cambridge Sample 4942)
# assay_info: Biochemical Assay (Z-AAT Elastase Activity Assay)
# run_parameters: purified Z-AAT protein from human plasma and purified human neutrophil elastase
pIC50: −log10 of the molar value.
measurement_kind: pIC50

Below: 6 compounds and their reported pIC50.
# compound, pIC50
measured = [
    ("Cc1cc(-c2c(C(C)C)n(-c3ccc(F)cc3)c3cc4cn[nH]c4cc23)cc(F)c1C(=O)O", "< 6.00"),
    ("Oc1ccc(-c2c(C3CCOCC3)n(-c3ccc(F)cc3)c3cc4cn[nH]c4cc23)cc1", "< 4.52"),
    ("COCC(C)(C)c1c(-c2cnn(C(C)(C)C(N)=O)c2)c2cc3[nH]ncc3cc2n1-c1ccc(F)cc1", "< 6.00"),
    ("CCC1(c2c(-c3ccc(C(=O)O)c(F)c3)c3cc4[nH]ncc4cc3n2-c2ccc(F)cc2)COC1", "< 6.00"),
    ("CNS(=O)(=O)c1ccc(-c2c(C3CCOCC3)n(-c3ccc(F)cc3)c3cc4cn[nH]c4cc23)cc1", "< 4.52"),
    ("Cn1cc2cc3c(cc2n1)c(-c1ccc(C(=O)O)cc1)c(C1CCOCC1)n3-c1ccc(F)cc1", "< 4.52"),
]

Any idea what its pIC50 is? The compound is O=C(O)c1ccc(-c2c(C3CCOCC3)n(-c3ccccc3)c3cc4cn[nH]c4cc23)cc1 < 6.00

Find the recorded pIC50 belonging to O=S(=O)(O)c1ccc(-c2c(C3CCOCC3)n(-c3ccc(F)cc3)c3cc4cn[nH]c4cc23)cc1 and report it. < 6.00

What value of measured pIC50 is listed for O=C(O)c1ccc(-c2c(C3CCCOC3)n(-c3ccc(F)cc3)c3cc4cn[nH]c4cc23)cc1 (single isomer, unassigned) [Compound 47] ? < 6.00

// lookup pIC50 for Cc1cc(-c2c(C(C)(C)CC#N)n(Cc3ccccc3Cl)c3cc4cn[nH]c4cc23)cnc1P(C)(C)=O < 4.52

# get_value(readout='pIC50', item= Cc1cc(-c2c(C(C)(C)CC#N)n(-c3ccc(F)cc3)c3cc4cn[nH]c4cc23)cnc1P(C)(C)=O ) 6.00 to 6.40

Entry CC(C)c1c(-c2cc(C(=O)O)ccn2)c2cc3[nH]ncc3cc2n1-c1ccc(F)cc1 has what pIC50? < 4.52

Requested read-out: pIC50. Entry: COCC(C)(C)c1c(-c2cnn(CS(C)(=O)=O)c2)c2cc3[nH]ncc3cc2n1-c1ccc(F)cc1 < 6.00

Need pIC50, item O=C(O)c1ccc(-c2c(C3(CO)CCC3)n(-c3ccc(F)cc3)c3cc4cn[nH]c4cc23)cc1 < 6.00

Given Cc1cc(P(C)(C)=O)ncc1-c1c(C(C)(C)CC#N)n(-c2ccc(F)cc2)c2cc3cn[nH]c3cc12 , state its recorded pIC50. < 6.00

Quick check: pIC50 of COCC(C)(C)c1c(-c2ccc(C(=O)NC3CCC(=O)NC3)cc2)c2cc3[nH]ncc3cc2n1-c1ccc(F)cc1 (centres unmarked) ? < 6.00

So what's the measured pIC50 for this one? CC(C)(CC#N)c1c(-c2ccc(C(=O)O)cc2)c2cc3cn[nH]c3cc2n1-c1ccc(F)cc1 < 4.52

// pIC50 lookup, key: CC(=O)N1CCN(c2ccc(-c3c(C4CCOCC4)n(-c4ccc(F)cc4)c4cc5cn[nH]c5cc34)cn2)CC1 < 4.52

What measured pIC50 goes with COCC(C)(O)c1c(-c2ccc(C(=O)O)cc2)c2cc3[nH]ncc3cc2n1-c1ccc(F)cc1 (centres unmarked) ? < 4.52

Endpoint output: pIC50 of COCC(C)(C)c1c(-c2ccc(C(=O)NC3CCNC(=O)C3)cc2)c2cc3[nH]ncc3cc2n1-c1ccc(F)cc1 (centres unmarked) . Value? < 4.52

Bench note: what pIC50 did CC(C)(CC#N)c1c(-c2cnn(C(C)(C)C(=O)O)c2)c2cc3[nH]ncc3cc2n1-c1ccc(F)cc1 show? 6.00 to 6.40

Which pIC50 reading was recorded for the compound Cc1cc(-c2c(C(C)(C)CS(C)(=O)=O)n(-c3ccc(F)cc3)c3cc4cn[nH]c4cc23)cnc1P(C)(C)=O ? < 4.52

Report pIC50 for COCC(C)(C)c1c(-c2ccc(C(=O)O)cc2)c2cc3[nH]ncc3cc2n1-c1ccccc1 please. < 6.00
